- Tested on: HT-1080
- Measurement Protocol: Modulatory profiling: Alamar Blue viability, lethal compound cotreated with death modulator (EC50, AUC)
- Format: cell-based
- Set-up: unit not given beside the values
- Setup Conditions: HT-1080, modulator NAD+
Property Measured: AUC HT.NAD+
Please state the value as a number alone, without comment.

A selection of reference data follows.
{"Compound": "O=c1c(Cl)c(Cl)cnn1-c1ccc(Cl)cc1 [CIL63]", "System Tested": "HT-1080", "AUC HT.NAD+": 0.03316}
{"Compound": "Cc1cccnc1Nc1nc(-c2ccccn2)cs1 [CIL13]", "System Tested": "HT-1080", "AUC HT.NAD+": "−0.04462"}

Specify measured AUC HT.NAD+ for CCCCNc1c(Cl)cnn(-c2ccccc2)c1=O [CIL36] .
−0.06378

For the compound CCCCNc1cc(C)nc(NCc2ccccc2)n1 [CIL18] , report AUC HT.NAD+.
0.09493
